Test system: ARH-77
Experiment: Cytotoxicity against human ARH77 cells assessed as cell survival after 72 hrs by MTT assay
Format: functional, cell-based
Settings: Homo sapiens, ARH-77, 72 h; read-out: IC50
Collected pIC50 values appear next to each entry.
Expect pIC50 as a plain number equal to -log10 of the molar concentration.

Past entries and their recorded results:
>>> value_observed("CCCCC(C)(O)/C(=C/B1OC(C)(C)C(C)(C)O1)CCC (configuration not stated)")
4.26
>>> value_observed("CCCCCCC(C)(O)/C(=C/B1OC(C)(C)C(C)(C)O1)CCC (configuration not stated)")
4.47
>>> value_observed("CCCCC/C(=C\\B1OC(C)(C)C(C)(C)O1)C(O)(c1ccccc1)C1CC1 (configuration not stated)")
4.98

Given item CCC/C(=C\B1OC(C)(C)C(C)(C)O1)C(O)(c1ccccc1)C1CC1 (configuration not stated) , the value recorded as its pIC50 is 4.26

Given item CCCCCCCC/C(=C\B1OC(C)(C)C(C)(C)O1)C(C)(O)CCCCCC (configuration not stated) , the value recorded as its pIC50 is 4.10

Given item CCCCCCCC/C(=C\B1OC(C)(C)C(C)(C)O1)C(O)(c1ccccc1)C1CC1 (configuration not stated) , the value recorded as its pIC50 is 5.20

Given item CCC/C(=C\B1OC(C)(C)C(C)(C)O1)C1(O)CCCc2ccccc21 (configuration not stated) , the value recorded as its pIC50 is 4.19

---

Test system: Jurkat
Assay: Cytotoxicity against human Jurkat cells assessed as cell survival after 72 hrs by MTT assay in presence of 10% FCS
Type: functional, cell-based
observable: IC50 (µM)
Hi! Could you send only the number? It should be in µM, unit omitted.

Given item CCCCCCCC/C(=C\B1OC(C)(C)C(C)(C)O1)C(O)(c1ccccc1)C1CC1 (stereo unspecified) , the value recorded as its IC50 is 84
